Kindly state pEC50 for each of the entries shown.
ASSAYED TARGET: human GLP-1R (Homo sapiens (Human), UniProt P43220, L260F)
Sequence (P43220 24-463 L260F): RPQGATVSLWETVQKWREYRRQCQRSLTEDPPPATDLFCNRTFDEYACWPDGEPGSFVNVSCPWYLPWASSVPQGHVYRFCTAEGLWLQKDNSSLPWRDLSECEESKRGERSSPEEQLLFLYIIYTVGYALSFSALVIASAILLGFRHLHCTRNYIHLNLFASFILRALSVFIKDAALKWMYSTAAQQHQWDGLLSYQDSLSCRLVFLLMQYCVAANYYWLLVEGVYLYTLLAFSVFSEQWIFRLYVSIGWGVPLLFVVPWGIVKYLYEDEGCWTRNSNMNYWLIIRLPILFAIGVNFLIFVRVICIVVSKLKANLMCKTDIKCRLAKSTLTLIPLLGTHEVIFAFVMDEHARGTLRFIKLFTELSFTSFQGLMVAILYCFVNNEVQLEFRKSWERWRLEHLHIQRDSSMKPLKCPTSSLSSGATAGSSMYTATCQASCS
MEASUREMENT DESCRIPTION: CHO GLP-1R Clone C6—Assay 2: HTRF cAMP cell-based functional agonist assay (low GLP-1R density)
SETTINGS: CHO GLP-1R Clone C6, cAMP HTRF; geometric mean
Give bare numbers, as −log10 of the molar value.

Worked examples follow.
{"columns": ["COMPOUND", "pEC50"],
 "data": [
  ["C[C@H]1CN(c2cccc(OCc3ccc(Cl)cc3F)n2)CCN1Cc1nc2ccc(C(=O)O)nc2n1C[C@@H]1CCO1 [Example 10A-10]", 8.39],
  ["O=C(O)c1ccc2nc(CN3CCC(c4cccc(OCc5ccc(Cl)cc5F)n4)CC3)n(CCN3CCOC3=O)c2c1 [Example 11A-20]", 6.57],
  ["Cn1cncc1Cn1c(CN2CCC(c3cccc(OCc4ccc(Cl)cc4F)n3)CC2)nc2ccc(C(=O)O)cc21 [Example 11A-70]", 8.00],
  ["C[C@H]1CN(c2cccc(OCc3ccc(F)cc3F)n2)CCN1Cc1nc2ccc(C(=O)O)cc2n1C[C@@H]1CCO1 [Example 10A-58]", 8.07],
  ["N#Cc1ccc(COc2cccc(N3CCN(Cc4nc5ccc(C(=O)O)cc5n4C[C@@H]4CCO4)CC3)n2)c(F)c1 [Example 5A-01]", 8.13]
]}

Could you report pEC50 for every entry in the following list?
1. Cn1c(CN2CCC(c3cccc(OCc4ccc(Cl)cc4)n3)CC2)nc2ccc(C(=O)O)cc21 [Example 9A-07]
2. O=C(O)c1ccc2nc(CN3CCN(c4cccc(OCc5ccc(Cl)cc5F)n4)CC3)n(C[C@H]3CCO3)c2c1 [Example 10A-48]
3. C[C@H]1CN(c2cccc(OCc3ccc(C#N)cc3F)n2)CCN1Cc1nc2ccc(C(=O)O)nc2n1C[C@@H]1CCO1 [Example 10A-09]

Result ::
1. 5.68
2. 6.85
3. 8.00

Could you report pEC50 for every entry in the following list?
1. Cn1c(CN2CCC(c3cccc(OCc4ccc(Cl)cc4F)n3)CC2)nc2cnc(C(=O)O)cc21 [Example 2A-03]
2. N#Cc1ccc(COc2cccc(C3CCN(Cc4nc5ccc(C(=O)O)nc5n4C[C@@H]4CCO4)CC3)n2)c(F)c1 [Example 6A-01]
3. COCCn1c(CN2CCC(c3cccc(OCc4ccc(Cl)cc4F)n3)CC2)nc2ncc(C(=O)O)nc21 [Example 2A-10]

Result ::
[5.92, 8.06, 6.17]

Could you report pEC50 for every entry in the following list?
1. O=C(O)c1ccc2nc(CN3CCC(c4cccc(OCc5ccc(Cl)cc5F)n4)CC3)n(CCN3CCCC3=O)c2c1 [Example 10A-12]
2. C[C@H]1CN(c2ccc(F)c(OCc3ccc(F)cc3F)n2)CCN1Cc1nc2ccc(C(=O)O)cc2n1C[C@H]1CCO1 [Example 10A-57]

Result ::
5.36
6.80

----------
Kindly state log10(EC50) for each of the entries shown.
ASSAYED TARGET: human GLP-1R (Homo sapiens, UniProt P43220, G168S)
Sequence (P43220 24-463 G168S limits assumed): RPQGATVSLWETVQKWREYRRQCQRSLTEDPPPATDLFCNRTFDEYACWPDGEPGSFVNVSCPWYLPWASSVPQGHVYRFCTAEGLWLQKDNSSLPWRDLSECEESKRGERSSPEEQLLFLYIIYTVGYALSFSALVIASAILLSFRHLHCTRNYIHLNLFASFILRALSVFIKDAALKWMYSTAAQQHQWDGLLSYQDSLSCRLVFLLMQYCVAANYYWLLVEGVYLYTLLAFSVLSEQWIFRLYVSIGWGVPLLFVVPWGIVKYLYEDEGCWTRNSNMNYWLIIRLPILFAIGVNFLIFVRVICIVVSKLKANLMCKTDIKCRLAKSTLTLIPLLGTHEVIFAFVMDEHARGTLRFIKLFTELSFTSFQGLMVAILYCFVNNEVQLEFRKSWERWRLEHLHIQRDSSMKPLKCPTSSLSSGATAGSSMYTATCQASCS
MEASUREMENT DESCRIPTION: CHO GLP-1R Clone H6—Assay 1: HTRF cAMP cell-based functional agonist assay (high GLP-1R density)
SETTINGS: read-out: Assay 1 EC50; CHO GLP-1R Clone H6, cAMP HTRF; geometric mean
Use the decimal logarithm of EC50 (nM).

{"columns": ["COMPOUND", "log10(EC50)"],
 "data": [
  ["COCCn1c(CN2CCN(c3cccc(OCc4ccc(Cl)cc4F)n3)CC2(C)C)nc2ccc(C(=O)O)cc21 [Example 12A-06]", 2.71],
  ["C[C@H]1CN(c2cccc(OCc3ccc(C#N)cc3F)n2)CCN1Cc1nc2ccc(C(=O)O)cc2n1Cc1cocn1 [Example 10A-14]", 0.91],
  ["O=C(O)c1ccc2nc(CN3CCC(c4cccc(OCc5ccc(Cl)cc5F)n4)CC3)n(Cc3cnco3)c2c1 [Example 10A-01]", 0.51],
  ["COCCn1c(CN2CCC(c3cccc(OCc4ccccc4)n3)CC2)nc2ccc(C(=O)O)cc21", 2.97],
  ["Cn1cncc1Cn1c(CN2CCC(c3cccc(OCc4ccc(Cl)cc4F)n3)CC2)nc2ccc(C(=O)O)cc21 [Example 11A-70]", -0.15]
]}

Query :: Please report the recorded log10(EC50) for CCn1cncc1Cn1c(CN2CCN(c3cccc(OCc4ccc(C#N)cc4F)n3)C[C@@H]2C)nc2ccc(C(=O)O)cc21 [Example 10A-63] .
Result :: -0.24

----------
ASSAYED TARGET: human GLP-1R (Homo sapiens, UniProt P43220, G168S)
MEASUREMENT DESCRIPTION: CHO GLP-1R Clone H6—Assay 1: HTRF cAMP cell-based functional agonist assay (high GLP-1R density)
SETTINGS: read-out: Assay 1 EC50; CHO GLP-1R Clone H6, cAMP HTRF; geometric mean
OBSERVABLE: EC50 (nM)
Give bare numbers, in nM.

{"columns": ["MOLECULE", "ASSAYED TARGET", "UNIT OF MEASUREMENT", "EC50"],
 "data": [
  ["Cn1c(CN2CCC(c3cccc(OCc4c(F)cccc4F)n3)CC2)nc2ccc(C(=O)O)cc21", "human GLP-1R (Homo sapiens, UniProt P43220, G168S)", "nM", 2900],
  ["CCc1nc(Cn2c(CN3CCC(c4cccc(OCc5ccc(Cl)cc5F)n4)CC3)nc3ccc(C(=O)O)cc32)no1 [Example 10A-51]", "human GLP-1R (Homo sapiens, UniProt P43220, G168S)", "nM", 390]
]}

Could you report EC50 for every entry in the following list?
1. CN1CC(Cn2c(CN3CCC(c4cccc(OCc5ccc(Cl)cc5F)n4)CC3)nc3ccc(C(=O)O)cc32)CC1=O (stereo not drawn) [Example 11A-42]
2. COC(C)(C)Cn1c(CN2CCC(c3cccc(OCc4ccc(Cl)cc4F)n3)CC2)nc2ccc(C(=O)O)cc21 [Example 11A-22]
3. Cc1noc(CCn2c(CN3CCC(c4cccc(OCc5ccc(Cl)cc5F)n4)CC3)nc3ccc(C(=O)O)cc32)n1 [Example 11A-29]

Result ::
190
21
55

Could you report EC50 for every entry in the following list?
1. Cn1ncnc1Cn1c(CN2CCC(c3cccc(OCc4ccc(Cl)cc4F)n3)CC2)nc2ccc(C(=O)O)cc21 [Example 11A-33]
2. CCN1CCC[C@@H]1Cn1c(CN2CCC(c3cccc(OCc4ccc(Cl)cc4F)n3)CC2)nc2ccc(C(=O)O)cc21 [Example 11A-54]
3. Cn1c(CN2CCC(c3cccc(OCc4ccc(C(F)(F)F)cc4)n3)CC2)nc2ccc(C(=O)O)cc21
4. CN(C)CCn1c(CN2CCC(c3cccc(OCc4ccc(Cl)cc4F)n3)CC2)nc2ccc(C(=O)O)cc21 [Example 10A-11]
5. CC1(Cn2c(CN3CCC(c4cccc(OCc5ccc(Cl)cc5F)n4)CC3)nc3ccc(C(=O)O)cc32)CCO1 (stereo not drawn) [Example 10A-53]
6. COCCn1c(CN2CCC(c3cccc(OCc4ccc(Cl)cc4F)n3)CC2C)nc2ccc(C(=O)O)cc21 (single isomer, unassigned) [Example 13A-03]
7. COCCn1cnnc1Cn1c(CN2CCC(c3cccc(OCc4ccc(Cl)cc4F)n3)CC2)nc2ccc(C(=O)O)cc21 [Example 11A-19]
8. COCCn1c(CN2CCN(c3cccc(OCc4ccc(C#N)cc4)n3)CC2)nc2ccc(C(=O)O)cc21

Result ::
1. 96
2. 500
3. 170
4. 75
5. 3.2
6. 5.2
7. 15
8. 19

Could you report EC50 for every entry in the following list?
1. COC1(Cn2c(CN3CCC(c4cccc(OCc5ccc(Cl)cc5F)n4)CC3)nc3ccc(C(=O)O)cc32)CCC1 [Example 10A-26]
2. C[C@H]1CN(c2cccc(OCc3ccc(C#N)cc3F)n2)CCN1Cc1nc2ccc(C(=O)O)cc2n1CC1CCCO1 (single isomer, unassigned; diastereomer 1) [Example 14A-11]
3. C[C@H]1CN(c2cccc(OCc3ccc(Cl)cc3F)n2)CCN1Cc1nc2ccc(C(=O)O)cc2n1Cc1cnco1 [Example 10A-16]
4. O=C(O)c1cc2c(cn1)nc(CN1CCC(c3cccc(OCc4ccc(Cl)cc4F)n3)CC1)n2C[C@@H]1CCO1

Result ::
1: 7; 2: 7; 3: 1.7; 4: 6

----------
ASSAYED TARGET: human GLP-1R (Homo sapiens, UniProt P43220, G168S)
MEASUREMENT DESCRIPTION: CHO GLP-1R Clone H6—Assay 1: HTRF cAMP cell-based functional agonist assay (high GLP-1R density)
SETTINGS: read-out: Assay 1 EC50; CHO GLP-1R Clone H6, cAMP HTRF; geometric mean
OBSERVABLE: pEC50
One number for each entry, as −log10 of the molar value.

Worked examples follow.
{"columns": ["MOLECULE", "pEC50"],
 "data": [
  ["Cn1c(CN2CCC(c3cccc(OCc4ccc(Cl)cc4)n3)CC2)nc2ccc(C(=O)O)cc21 [Example 9A-05]", 5.57],
  ["Cn1c(CN2CCC(c3cccc(OCc4ccc(Cl)cc4F)n3)CC2)nc2cc(Cl)c(C(=O)O)cc21", 6.11],
  ["C[C@H]1CN(c2cccc(OCc3ccc(C#N)cc3)n2)CCN1Cc1nc2ccc(C(=O)O)cc2n1C[C@@H]1CCO1 [Example 10A-49]", 9.25],
  ["CCn1ccnc1Cn1c(CN2CCC(c3cccc(OCc4ccc(Cl)cc4F)n3)CC2)nc2ccc(C(=O)O)cc21 [Example 11A-39]", 6.89],
  ["O=C(O)c1ccc2nc(CN3CCC(c4cccc(OCc5ccc(Cl)cc5F)n4)CC3)n(CCC3CCOCC3)c2c1 [Example 11A-65]", 5.51],
  ["COCCn1c(CN2CCC(c3cccc(OCc4ccc(C#N)c(C)c4)n3)CC2)nc2ccc(C(=O)O)cc21", 6.82],
  ["O=C(O)c1ccc2nc(CN3CCC(c4cccc(OCc5ccc(F)cc5F)n4)CC3)n(C[C@@H]3CCO3)c2c1 [Example 10A-05]", 8.62],
  ["CN1CCC1Cn1c(CN2CCC(c3cccc(OCc4ccc(Cl)cc4F)n3)CC2)nc2ccc(C(=O)O)cc21 (stereo not drawn) [Example 10A-79]", 7.48]
]}

Now for a further molecule.
Query :: Please report the recorded pEC50 for N#Cc1ccc(COc2nc(C3CCN(Cc4nc5ccc(C(=O)O)cc5n4C[C@@H]4CCO4)CC3)ccc2F)c(F)c1 [Example 10A-54] .
Result :: 9.15
